Value source: the array DNA melting data of Ke et al. (doi:10.1101/2024.01.08.574731)

Could you please report measured folding enthalpy for the items listed next?
Experiment: folding enthalpy; higher = less favourable; fluorescence melt of hairpins on a sequencing array, two-state fit
Conditions: sodium 0.088 M
One number for each entry, in kJ/mol.

Problem: Could you tell me which folding enthalpy is on file for GATTAGGCGAAAGCCATC (((..(((....)))))) ?
Result: -36.9

Problem: Now consider GGAGTGAAAACTCC (((((....))))) and answer again.
Result: -114

Could you now consider this next sequence?
Problem: Quick one: folding enthalpy for GCCGATGGAAACATCGAC (.(((((....))))).) ?
Result: -68.1

---

Experiment: folding enthalpy; higher = less favourable; fluorescence melt of hairpins on a sequencing array, two-state fit
Conditions: sodium 0.088 M
Classification scheme (folding enthalpy): c1 (below -30 kcal/mol), c2 (-30 kcal/mol to below -20 kcal/mol), c3 (-20 kcal/mol or more)

Problem: Classify this sequence: GAGGTACGAAAGTAGCTC (((.(((....))).)))
Result: c1

Problem: Param item: GGCCTACGAAAGTACGCC (((.(((....))).)))
Result: c2

Problem: How about this sequence: GGCCGCCCGAAAGGGGCC (((..(((....))))))
Result: c3

Problem: Now give it for GCTATACGAAAGTAGAGC (((.(((....))).))) too.
Result: c1

Problem: Then GCGTAAACGAAAGTTCGC (((..(((....)))))) ?
Result: c1

---
Problem: Dear colleague, I would appreciate it if you could identify the bin for GCTTATCGAAAGATCAGC (((.(((....))).))) and reply at your convenience.
Result: c2

Problem: // same read-out, input: GATCAAACTGTTGATC ((((((....))))))
Result: c2

Problem: Would you mind doing GCTCAGCCGAAAGGCAGC (((..(((....)))))) as well?
Result: c3

Problem: Same read-out for GGATGGGCGAAAGCCTCC (((..(((....)))))) ?
Result: c3

---

Assay: melting temperature; fluorescence melt of hairpins on a sequencing array, two-state fit, raised by 9.35 °C to match UV melts
Conditions: sodium 0.088 M
observed property: Tm
Phrase the answer as number then unit, nothing more needed.

Example entries and their recorded answers appear below.
Problem: I would be grateful if you could share the reported Tm for CGGCCCGGAAACGGACCG (((.(((....))).))) .
Result: 57.6 °C

Problem: Field entry: GCTGGTGAAAACCAGC ((((((....))))))
Result: 69.1 °C

Problem: Follow-up entry: GCGAGCGTCGC ((((...))))
Result: 60 °C

Problem: Request: GATCACCCAGTGATC ((((((...))))))
Result: 57.2 °C

Problem: Note, next up: GTGTCGGGAAACCGGCAC (((.(((....))).)))
Result: 60.8 °C

Problem: Try this sequence next: GGTGGCACGAAAGTGACC (((..(((....))))))
Result: 45.6 °C

Next, consider the following sequence.
Problem: # Tm lookup, item GGTGAGGGAAACCTCACC (((((((....)))))))
Result: 67.5 °C

---

Experiment: melting temperature; fluorescence melt of hairpins on a sequencing array, two-state fit, raised by 9.35 °C to match UV melts
Settings: sodium 0.088 M
// returns not met unless Tm is strictly below 60 °C, in which case met

Observe how each entry below is paired with its result.
Problem: Please indicate whether the reported Tm of GAGCCCGAAAGGGACTC ((((((....))).))) is strictly below 60 °C.
Result: met

Problem: // same read-out, input: TCTTCGAAAGAAGA (((((....)))))
Result: met

Problem: Further, for GGGGCTCGAAAGAGTCCC (((.(((....))).))) ?
Result: not met

Problem: What about this sequence? GATCGGAGTTCCGATC ((((((....))))))
Result: met

// switching to the query sequence
Problem: I wonder whether GATCAGTCAACTGATC ((((((....)))))) has Tm below 60 °C. Can you tell?
Result: met

---

What Tm was measured for each of the following?
Assay: melting temperature; fluorescence melt of hairpins on a sequencing array, two-state fit, raised by 9.35 °C to match UV melts
Conditions: sodium 0.088 M

// input: 8 sequences below; output: Tm for each
1. GTAGTCGAAAGACATAC ((((((....))).)))
2. GGTCTGACGAAAGTCACC (((..(((....))))))
3. GTGCGCCGAAAGGCACAC (((.(((....))).)))
4. GGGTTCGAAAGAATCCCC ((((((....)))..)))
5. GGTGCGCGAAAGCGACC (((.(((....))))))
6. GCGTCAGGAAACTGGTGC ((..(((....)))..))
7. GAAACCGAAAGGTACTTC ((((((....)))..)))
8. GACACTGGAAACAGTGCC (.(((((....))))).)

Result:
["35.2 °C", "27.8 °C", "63.7 °C", "50.6 °C", "56.7 °C", "41.6 °C", "34.6 °C", "43.2 °C"]

Would you be so kind as to report Tm for each listed record?
1. CCATCGAAAGATGG (((((....)))))
2. GCTTTCGGAAACGGAAGC ((((.((....)).))))
3. GCGGGGCGAAAGCTACGC (((..((....))..)))
4. GCCAAAGGAAACTTTGGC (((((((....)))))))

Result:
1: 60.5 °C; 2: 53.2 °C; 3: 68.6 °C; 4: 64 °C

---

Experiment: folding enthalpy; higher = less favourable; fluorescence melt of hairpins on a sequencing array, two-state fit
Conditions: sodium 0.088 M
Quick rule for you: folding enthalpy at -20 kcal/mol or higher means YES, lower means NO.

Use the examples below as a reference point.
Problem: Entry GATCCTGATAGGATC ((((((...)))))) : is its folding enthalpy no less than -20 kcal/mol?
Result: NO

Problem: Let us now turn to CGATGCGGAAACGCGTCG (((.(((....))).)))
Result: NO

Problem: Same read-out for GCCAGCGGAAACGCCGGC (((.(((....))).))) ?
Result: NO

Problem: Do the same for GCCGAGAAATCGGC (((((....))))) please
Result: NO

Further cases:
Problem: Reported folding enthalpy at or above -20 kcal/mol? GTTGATGCGAAAGCAAAC (((..(((....))))))
Result: YES

Problem: Item: GCTAATCGAAAGATCAGC (((.(((....))).)))
Result: NO

Problem: // same read-out, input: GCCGCTCCGAAAGGAGGC (((..(((....))))))
Result: YES

---

Test: melting temperature; fluorescence melt of hairpins on a sequencing array, two-state fit, raised by 9.35 °C to match UV melts
Details: sodium 0.088 M
Values of Tm greater than or equal to 50 °C map to label 1; values below map to label 0.

Recorded results for 4 sequences are shown here.
Problem: Assess whether reported Tm for GCTGTTGGAAACAACGGC ((.((((....)))).)) sits at 50 °C or higher.
Result: label 1

Problem: Same question, GTGCCGACGAAAGTCCAC (((..(((....)))))) this time
Result: label 1

Problem: // same read-out, input: GGTCTTGGAAACAAGATC (.(((((....))))).)
Result: label 0

Problem: Ok, now GCCGACTCGAAAGAGGGC (((..(((....))))))
Result: label 0

---
Problem: Check if Tm >= 50 °C (inclusive). Item: GATCTAAGCGTAGATC ((((((....))))))
Result: label 0

Problem: # iterate: GCGTCTGTACGC ((((....))))
Result: label 1

Problem: Try GAAGACGGAAACGCCTTC ((((.((....)).)))) next.
Result: label 0

Problem: Request: GGGCAGGGAAACTTGCCC (((((.(....).)))))
Result: label 1

Problem: Moving on to GTGAGAGGAAACTTTCAC ((((.((....)).))))
Result: label 0

Problem: What do you get for GTGCCAGAAATGGCAC ((((((....)))))) ?
Result: label 1

Problem: Moving on to the next sequence: GTAGGAGGAAACTCTTAC (((.(((....))).)))
Result: label 0

---

Assay: melting temperature; fluorescence melt of hairpins on a sequencing array, two-state fit, raised by 9.35 °C to match UV melts
Details: sodium 0.088 M
Rule: Tm below 50 °C gives Criterion met. Equal to or above 50 °C gives Criterion not met.

Problem: Criterion: Tm strictly below 50 °C. Is it met by GCAATTCGAAAGAAATGC (((.(((....))).))) ?
Result: Criterion met

Problem: Input GCATATGAAAATATGC ((((((....))))))
Result: Criterion not met

Problem: What do you get for GAGTCCGGAAACGGACCC (.(((((....))))).) ?
Result: Criterion met
